Quick reference for log10 of EC50 among some compounds
target: glucosylceramide synthase (GCS) (Homo sapiens (Human), UniProt Q16739); assay: UDP-Glo glucosylceramide synthase biochemical assay; details: endogenous GCS in Golgi preparations from human A375 malignant melanoma skin cells; C6 ceramide and UDP-glucose substrates; 20 h incubation at room temperature; UDP detected by luminescence
Sequence (Q16739 whole entry): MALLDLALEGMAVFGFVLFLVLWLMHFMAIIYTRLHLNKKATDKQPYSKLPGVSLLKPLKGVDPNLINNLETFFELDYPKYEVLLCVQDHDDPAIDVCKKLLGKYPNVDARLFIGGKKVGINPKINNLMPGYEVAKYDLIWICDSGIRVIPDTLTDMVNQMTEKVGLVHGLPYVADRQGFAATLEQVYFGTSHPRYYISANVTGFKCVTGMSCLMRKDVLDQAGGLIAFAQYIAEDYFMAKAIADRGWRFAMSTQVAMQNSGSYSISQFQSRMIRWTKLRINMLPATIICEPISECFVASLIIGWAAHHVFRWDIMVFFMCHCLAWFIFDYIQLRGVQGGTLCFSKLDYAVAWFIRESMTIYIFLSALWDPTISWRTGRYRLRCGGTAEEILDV
READOUT_NAME: log10 of EC50 (log10 of the value in nM)

{"COMPOUND": "O=C(c1nn(-c2ccc(F)c(Cl)c2)c2c1CCC2)N1CCN2CCC1CC2", "log10 of EC50": 0.11}
{"COMPOUND": "COc1ccc(-n2nc(C(=O)N3CC[N@@]4CCC3C(F)(F)C4)c3c2CCC3)cc1C(F)(F)F (single isomer, unassigned)", "log10 of EC50": 1.82}
{"COMPOUND": "COc1ccc(-n2nc(C(=O)N3CCNCC4(CC4)C3)c3c2CCOC3)cc1", "log10 of EC50": 3.08}
{"COMPOUND": "COc1ccc(-n2nc(C(=O)N3CCCN(C)CC3)c3c2CCOC3)cc1F", "log10 of EC50": 2.86}
{"COMPOUND": "COc1ccc(-n2nc(C(=O)N3CCCN(C)CC3)c3c2CCOC3)cc1C(F)(F)F", "log10 of EC50": 2.51}
{"COMPOUND": "COc1ccc(-n2nc(C(=O)N3CCN4CCC3C(F)(F)C4)c3c2CCOC3)cc1 (single isomer, unassigned) [Compound 3]", "log10 of EC50": 3.15}
{"COMPOUND": "COc1ccc(-n2nc(C(=O)N3CCNCC(F)C3)c3c2CCOC3)cc1 (racemic)", "log10 of EC50": 3.40}
{"COMPOUND": "COc1ccc(-n2nc(C(=O)N3CCN4CCC3CC4)c3c2CCC3)cc1Cl", "log10 of EC50": -0.52}
{"COMPOUND": "COc1ccc(-n2nc(C(=O)N3CCCNCC3)c3c2CCOC3)cc1", "log10 of EC50": 2.56}
{"COMPOUND": "COc1ccc(-n2nc(C(=O)N3CCN4CCC3CC4)c3c2CCC3)cc1C(F)(F)F", "log10 of EC50": -1.00}
{"COMPOUND": "COc1ccc(-n2nc(C(=O)N3CCN4CCC3CC4)c3c2CCC3)cc1", "log10 of EC50": 0.23}
{"COMPOUND": "O=C(c1nn(-c2ccc(OC(F)F)c(Cl)c2)c2c1CCC2)N1CCN2CCC1CC2", "log10 of EC50": 0.11}
{"COMPOUND": "O=C(c1nn(-c2cccc(Cl)c2)c2c1CCC2)N1CCN2CCC1CC2", "log10 of EC50": 0.18}
{"COMPOUND": "COc1ccc(-n2nc(C(=O)N3CCN4CCC3C(F)(F)C4)c3c2CCC3)cc1C(F)(F)F (single isomer, unassigned)", "log10 of EC50": 1.20}
{"COMPOUND": "O=C(c1nn(-c2ccc(Cl)c(Cl)c2)c2c1CCC2)N1CCN2CCC1CC2", "log10 of EC50": -1.00}
{"COMPOUND": "COc1ccc(-n2nc(C(=O)N3CCN4CCC3CC4)c3c2CCOC3)cc1Cl", "log10 of EC50": 0.34}
{"COMPOUND": "O=C(c1nn(-c2ccc(OC(F)F)cc2)c2c1COCC2)N1CCN2CCC1CC2", "log10 of EC50": 1.46}
